Reported IC50 is given for each of the following molecules.
# ASSAY SYSTEM: SOS1:KRAS (G12C) interaction (Homo sapiens (Human), UniProt Q07889)
# Sequence (Q07889 564-1049, stated change not applied): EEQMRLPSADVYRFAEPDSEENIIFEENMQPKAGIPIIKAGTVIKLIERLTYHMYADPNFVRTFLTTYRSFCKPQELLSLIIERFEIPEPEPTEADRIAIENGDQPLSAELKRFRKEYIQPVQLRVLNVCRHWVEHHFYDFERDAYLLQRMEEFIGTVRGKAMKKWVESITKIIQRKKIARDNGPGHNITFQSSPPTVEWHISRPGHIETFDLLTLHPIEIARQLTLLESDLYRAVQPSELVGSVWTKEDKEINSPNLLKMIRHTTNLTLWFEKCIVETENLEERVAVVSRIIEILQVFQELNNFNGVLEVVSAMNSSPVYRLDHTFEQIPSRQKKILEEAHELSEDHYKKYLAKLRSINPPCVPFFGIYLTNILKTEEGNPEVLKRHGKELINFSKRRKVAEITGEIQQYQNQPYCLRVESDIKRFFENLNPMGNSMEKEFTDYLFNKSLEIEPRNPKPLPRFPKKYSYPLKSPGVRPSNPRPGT
# MEASUREMENT DESCRIPTION: SOS1-KRas(G12C) FRET Assay
# CONDITIONS USED: 0.5 nM His10-SOS1 (res. 564-1049), 2.5 nM GST-KRAS (res. 1-169, G12C); read-out: SOS-KRas(G12C) FRET IC50
Give a bare numeral; the unit µM is implied.

Example entries and their recorded answers appear below.
INSERT INTO assay_data (molecule, assay_system, parameter, measured_number) VALUES
  ('C[C@@H](Nc1nn(C)c(=O)c2cc(=O)n(C3CC3)cc12)c1cccc(C(F)(F)CO)c1F', 'SOS1:KRAS (G12C) interaction (Homo sapiens (Human), UniProt Q07889)', 'IC50', 0.037),
  ('C[C@@H](Nc1nn(C)c(=O)c2cc(=O)n(C3CCOCC3)cc12)c1cccc(C(F)F)c1F', 'SOS1:KRAS (G12C) interaction (Homo sapiens (Human), UniProt Q07889)', 'IC50', 0.0538),
  ('C[C@@H](Nc1nn(C)c(=O)c2c(OCCN(C)C)c(=O)n(C3(C(F)F)CC3)cc12)c1cccc(C(F)F)c1F', 'SOS1:KRAS (G12C) interaction (Homo sapiens (Human), UniProt Q07889)', 'IC50', 0.0353),
  ('C[C@@H](Nc1nn(C)c(=O)c2cc(=O)n(C3(CF)CC3)cc12)c1cccc(C(F)F)c1F', 'SOS1:KRAS (G12C) interaction (Homo sapiens (Human), UniProt Q07889)', 'IC50', 0.0543),
  ('C[C@@H](Nc1nn(C)c(=O)c2cc(=O)n(C3(C(F)F)CC3)cc12)c1cccc2cccn12', 'SOS1:KRAS (G12C) interaction (Homo sapiens (Human), UniProt Q07889)', 'IC50', 2.06);

Exercise: Need IC50 of C[C@@H](Nc1nn(C)c(=O)c2cc(=O)n([C@@]3(C(F)(F)F)CCOC3)cc12)c1cccc2c(F)coc12 (single isomer, unassigned) , thanks.
Key: 0.0348

Exercise: Now the molecule Cc1c([C@@H](C)Nc2nn(C)c(=O)c3cc(=O)n([C@@H]4C[C@H]4c4cncc(F)c4)cc23)cccc1C(F)(F)F (single isomer, unassigned)
Key: 0.567

Exercise: Also check CC(=O)N1CC[C@@](C)(n2cc3c(N[C@H](C)c4cccc(C(F)F)c4F)nn(C)c(=O)c3cc2=O)C1 (single isomer, unassigned)
Key: 0.0078

* * *

# ASSAY SYSTEM: SOS1:KRAS (G12C) interaction (Homo sapiens (Human), UniProt Q07889)
# MEASUREMENT DESCRIPTION: SOS1-KRas(G12C) FRET Assay
# CONDITIONS USED: 0.5 nM His10-SOS1 (res. 564-1049), 2.5 nM GST-KRAS (res. 1-169, G12C); read-out: SOS-KRas(G12C) FRET IC50
PARAMETER: pIC50
Schema: pIC50 number; meaning minus log10 of the concentration expressed in molar units.

Example entries begin here.
INSERT INTO assay_data (molecule, parameter, measured_number) VALUES
  ('CC(=O)N1CC[C@@](n2cc3c(N[C@H](C)c4cccc(C(F)F)c4F)nn(C)c(=O)c3cc2=O)(C(F)(F)F)C1 (single isomer, unassigned)', 'pIC50', 8.04),
  ('CC(=O)N1CC(C(F)F)(n2cc3c(N[C@H](C)c4cccc(C(F)F)c4F)nn(C)c(=O)c3cc2=O)C1', 'pIC50', 7.73),
  ('C[C@@H](Nc1nn(C)c(=O)c2cc(=O)n([C@@]3(C(F)(F)F)CCOC3)cc12)c1cccc(C(F)F)c1F (single isomer, unassigned)', 'pIC50', 7.71),
  ('C[C@@H](Nc1nn(C)c(=O)c2cc(=O)n(C3CCOCC3)cc12)c1cccc2c1OCC2(F)F', 'pIC50', 7.08),
  ('CCn1nc(N[C@H](C)c2cccc(C(F)(F)F)c2C)c2cn(C3CC3)c(=O)cc2c1=O', 'pIC50', 5.88),
  ('CC(=O)N1CC[C@](n2cc3c(N[C@H](C)c4cccc5c4OCC5(F)F)nn(C)c(=O)c3cc2=O)(C(F)(F)F)C1 (single isomer, unassigned)', 'pIC50', 5.76),
  ('CC(=O)N1CC2(n3cc4c(N[C@H](C)c5cccc(C(F)F)c5F)nn(C)c(=O)c4cc3=O)CC1C2', 'pIC50', 7.15),
  ('C[C@@H](Nc1nn(C)c(=O)c2cc(=O)n(C3CC(C#N)C3)cc12)c1cccc(C(F)F)c1F (stereo partly shown)', 'pIC50', 7.03),
  ('C[C@@H](Nc1nn(C)c(=O)c2c(OCC3COC3)c(=O)n(C3(C(F)F)CC3)cc12)c1cccc(C(F)F)c1F', 'pIC50', 7.22),
  ('COc1c(=O)n([C@@]2(C(F)(F)F)CCOC2)cc2c(N[C@H](C)c3cccc(C(F)F)c3F)nn(C)c(=O)c12 (single isomer, unassigned)', 'pIC50', 7.62);

Exercise: I am curious: what pIC50 value has been reported for `C[C@@H](Nc1nn(C)c(=O)c2cc(=O)n(C3CC3)cc12)c1cccc(C(F)(F)C(=O)N(C)C)c1F` ?
Key: 6.44

Exercise: Try the molecule `Cc1c([C@@H](C)Nc2nn(C)c(=O)c3cc(=O)n(C4CCNCC4)cc23)cccc1C(F)(F)F`
Key: 6.46

Exercise: Moving on to the next molecule: Cc1c([C@@H](C)Nc2nn(C)c(=O)c3cc(=O)n([C@]4(C)CCOC4)cc23)cccc1C(F)(F)F (single isomer, unassigned)
Key: 7.49

The measurements presented in this section are drawn from patent US20240279221A1.
